Assay: Toxicity liver stage against HepG2, at 10uM
Assay type: cell-based
Set-up: test concentration 10 uM, cell line HepG2-A16-CD81EGFP
Settings: human, HepG2-A16-CD81EGFP cells; read-out: INHIBITION
VALUE KIND: cytotoxicity at 10 µM (%)
Your answer should be a plain number; it is taken to be in %.

These recorded examples may help you get a feel for the data.
>  <COMPOUND>
CC(=O)N1CCC2(CC1)[C@@H]1CN(C(=O)N(C)C)C[C@@H]1C(=O)N2C

>  <QUANTITY UNIT>
%

>  <cytotoxicity at 10 µM>
2.38

$$$$
>  <COMPOUND>
CN(C)C(=O)N1C[C@@H]2CCCO[C@@H]2[C@H](N(C)Cc2ccco2)C1

>  <QUANTITY UNIT>
%

>  <cytotoxicity at 10 µM>
-7.82

$$$$
>  <COMPOUND>
Cc1cc(CN(C)C(=O)CC(C)C)no1

>  <QUANTITY UNIT>
%

>  <cytotoxicity at 10 µM>
-3.57

$$$$

IN: Please report the recorded cytotoxicity at 10 µM for CCC(=O)N1CCC2(CC1)CC(CC(N)=O)c1ccc(F)cc12 (stereo unspecified) .
OUT: 11.8

IN: Input Cc1csc(CCNC(=O)N2CCC(n3cccc3)CC2)n1
OUT: 3.98

IN: Input Cc1ncc(CN2CCOC(CN(C)c3cccnn3)C2)s1 (stereo unspecified)
OUT: 2.86

====

Assay: Toxicity liver stage against HepG2, at 10uM
Type: cell-based
Design: test concentration 10 uM, cell line HepG2-A16-CD81EGFP
Conditions: human, HepG2-A16-CD81EGFP cells; read-out: INHIBITION
Listed below: cytotoxicity at 10 µM values for each entry.
Your answer should be a plain number; it is taken to be in %.

>  <MOLECULE>
CCc1nc(CCNc2ncccc2S(N)(=O)=O)sc1C

>  <cytotoxicity at 10 µM, %>
-3.23

$$$$

IN: Please report the recorded cytotoxicity at 10 µM for Cc1nn(C)c(C)c1CN(Cc1cccn1-c1cccnc1)C(C)C .
OUT: -3.16

IN: Input c1cc(-c2ccn(CCN3CCCC3)n2)cc(-c2nccs2)c1
OUT: -8.96

IN: Input CC(C)NC(=O)C1CN(Cc2ccc(F)cc2)CC12CCOCC2 (configuration not stated)
OUT: 3.86

IN: Input Cc1ccsc1-c1nccn1CCN1CCCCC1CO (configuration not stated)
OUT: -8.11

IN: Input Cc1noc(C)c1-c1cncc(CC2CCN(C(=O)c3cc[nH]n3)C2)n1 (configuration not stated)
OUT: -17.4

IN: Input O=C(NCCn1cnc(C2CCCC2)cc1=O)c1ccc(=O)[nH]n1
OUT: -0.895

IN: Input CC(=O)N1CC(c2ccnc(Nc3ccc(C)cn3)n2)C1
OUT: -31.1

IN: Input Cc1noc(C)c1CN1CCc2cnn(C)c2C1COCC1CC1 (configuration not stated)
OUT: 10.7

====

Assay: Toxicity liver stage against HepG2, at 10uM
Assay type: cell-based
Design: test concentration 10 uM, cell line HepG2-A16-CD81EGFP
Details: human, HepG2-A16-CD81EGFP cells; read-out: INHIBITION
VALUE KIND: cytotoxicity at 10 µM (%)
Your answer should be a plain number; it is taken to be in %.

These recorded examples may help you get a feel for the data.
>  <MOLECULE>
CNS(=O)(=O)c1ccc(C(=O)NCc2ccnc(OC)c2)cc1

>  <VALUE KIND>
cytotoxicity at 10 µM

>  <QUANTITY UNIT>
%

>  <QUANTITATIVE READOUT>
2.86

$$$$
>  <MOLECULE>
CN1C[C@@H](COCC2CC2)[C@H]2CCN(Cc3ccco3)CC[C@H]2C1=O

>  <VALUE KIND>
cytotoxicity at 10 µM

>  <QUANTITY UNIT>
%

>  <QUANTITATIVE READOUT>
-4.6

$$$$
>  <MOLECULE>
O=C(CNc1ccc(OC2CCOC2)cc1)NCc1cccs1 (configuration not stated)

>  <VALUE KIND>
cytotoxicity at 10 µM

>  <QUANTITY UNIT>
%

>  <QUANTITATIVE READOUT>
3.43

$$$$
>  <MOLECULE>
CCN1CCOCC2(CCCN(C(=O)c3conc3C)C2)C1 (configuration not stated)

>  <VALUE KIND>
cytotoxicity at 10 µM

>  <QUANTITY UNIT>
%

>  <QUANTITATIVE READOUT>
2.82

$$$$
>  <MOLECULE>
CCO[C@@H]1CN(S(=O)(=O)c2cn(C)cn2)[C@@H]2CCCO[C@@H]21

>  <VALUE KIND>
cytotoxicity at 10 µM

>  <QUANTITY UNIT>
%

>  <QUANTITATIVE READOUT>
-146

$$$$

IN: Please report the recorded cytotoxicity at 10 µM for CS(=O)(=O)NCC1CCCN(c2ccc(C#N)cn2)C1 (configuration not stated) .
OUT: -11.1

IN: Input Cc1c2c(C(F)F)cc(SCC(=O)O)nc2nn1C
OUT: -9.38

IN: Input CCOc1ncccc1C(=O)N1CCCC(n2nc(C)nc2C)C1 (configuration not stated)
OUT: -8.47

IN: Input COCCc1noc(CN2CCc3nn(C(C)C)c(=O)cc3C2)n1
OUT: -14.9

IN: Input Cc1cc(F)ccc1-c1cc(NCCO)nc2[nH]ccc12
OUT: 21.7

IN: Input C1CCc2nnc(CNc3nc(C4CC4)nc4c3CCNCC4)n2CC1
OUT: -7.39

IN: Input CCn1nc(C)c(CNC(=O)C2COc3ccccc3C2)c1C (configuration not stated)
OUT: 9.39

IN: Input COCCc1ncc(CN2C[C@@H](C(=O)O)[C@H](C(C)C)C2)cn1
OUT: -5.35

IN: Input COCCN(Cc1coc(-c2cccc(Cl)c2)n1)C1CC1
OUT: 3.92

IN: Input CCc1nc2n(n1)CC(NCc1nc3ccccc3o1)CC2 (configuration not stated)
OUT: 12.4

IN: Input O=C1CCN(C(=O)c2csc(-c3ccc(C(F)(F)F)cc3)n2)CCN1
OUT: -12.3

IN: Input N#CC1(NC(=O)CN2CCC(c3ccnn3CCO)CC2)CCCC1
OUT: 2.85
